The entries that follow carry IC50 values tested on High affinity nerve growth factor receptor (Homo sapiens, UniProt P04629), drawn from several published reports.

The following compounds have reported results that may help.
compound	IC50
COCCN1C[C@@H](NC(=O)Nc2c(Br)c(C3CCN(C(=O)OC(C)(C)C)CC3)nn2-c2ccccc2)[C@H](c2ccc(F)c(F)c2)C1	< 100 nM
Fc1cc(Cc2c[nH]c3ncnc(NC4CC4)c23)cnc1NC1CCC(F)(F)CC1	< 100 nM
N#Cc1cnc2[nH]cc(Cc3cc(F)c(OCc4nc5ccccc5[nH]4)cc3F)c2c1	≤ 10000 nM
COCCN1C[C@@H](NC(=O)Nc2cc(-c3ccncc3)nn2C)[C@H](c2ccccc2)C1	< 100 nM
CCOc1nn(-c2ccccc2)c(NC(=O)N[C@@H]2CN(CCOC)C[C@H]2c2cccc(C(F)(F)F)c2)c1C (relative stereo)	< 100 nM

# per-item lookup of IC50; items listed below
1. COCCN1C[C@@H](NC(=O)Nc2c(C)c(-c3cncnc3)nn2-c2ccccc2)[C@H](c2ccc(F)c(F)c2)C1
2. CCOc1ccn(-c2ccc(F)cc2)c(=O)c1C(=O)Nc1ccc(Oc2ccnc3cc(OCCCN4CCOCC4)c4c(c23)OCCO4)cc1Cl
3. COCCN1C[C@@H](NC(=O)Nc2c(C)c(OCC(C)(C)O)nn2-c2ccccc2)[C@H](c2ccc(F)c(F)c2)C1
4. COc1ncnc2[nH]cc(Cc3ccc(Nc4ccc(Cl)nc4)nc3F)c12

*A*
["< 100 nM", "< 50 nM", "< 100 nM", "< 1000 nM"]
